Each item that follows carries a reported Cell EC50 ratio.
biological target: PARP in C41 cells (Homo sapiens (Human), UniProt P09874); conditions: Table 3; C41 cells; ratio to comparator EC50
Sequence (P09874 whole entry): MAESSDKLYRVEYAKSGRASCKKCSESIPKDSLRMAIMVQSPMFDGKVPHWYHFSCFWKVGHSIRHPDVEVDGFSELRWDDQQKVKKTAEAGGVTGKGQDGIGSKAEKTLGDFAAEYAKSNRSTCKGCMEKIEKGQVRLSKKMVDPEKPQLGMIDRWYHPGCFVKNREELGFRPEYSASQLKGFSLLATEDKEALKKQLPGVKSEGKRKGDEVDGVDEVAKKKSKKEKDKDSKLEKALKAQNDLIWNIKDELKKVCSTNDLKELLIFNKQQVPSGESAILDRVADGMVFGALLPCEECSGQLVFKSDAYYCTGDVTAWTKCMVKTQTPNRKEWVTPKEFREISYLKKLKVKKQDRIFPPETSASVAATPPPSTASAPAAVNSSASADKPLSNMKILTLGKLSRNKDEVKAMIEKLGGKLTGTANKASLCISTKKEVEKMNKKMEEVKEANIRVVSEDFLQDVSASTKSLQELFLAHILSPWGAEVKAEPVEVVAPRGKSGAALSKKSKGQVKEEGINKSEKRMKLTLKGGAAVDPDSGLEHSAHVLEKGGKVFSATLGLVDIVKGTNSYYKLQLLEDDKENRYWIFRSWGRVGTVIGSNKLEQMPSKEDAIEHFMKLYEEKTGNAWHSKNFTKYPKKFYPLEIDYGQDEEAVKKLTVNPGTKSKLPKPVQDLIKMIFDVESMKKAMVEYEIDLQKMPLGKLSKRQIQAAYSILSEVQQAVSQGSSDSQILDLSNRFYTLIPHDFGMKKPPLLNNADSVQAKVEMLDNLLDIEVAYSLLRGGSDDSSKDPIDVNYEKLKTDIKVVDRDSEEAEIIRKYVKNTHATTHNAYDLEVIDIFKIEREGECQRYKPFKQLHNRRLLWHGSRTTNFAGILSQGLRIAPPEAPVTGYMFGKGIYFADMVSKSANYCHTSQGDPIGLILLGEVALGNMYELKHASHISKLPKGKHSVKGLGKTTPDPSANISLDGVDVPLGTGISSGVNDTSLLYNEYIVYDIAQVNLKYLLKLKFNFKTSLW

molecule: O=C(c1cccc(Cc2n[nH]c(=O)c3c2CCCC3)c1)N1CCC(O)CC1 [drawing 46]
target-under-test: PARP in C41 cells (Homo sapiens (Human), UniProt P09874)
Cell EC50 ratio: 13

molecule: O=C1CCC(=O)N1c1cc(Cc2n[nH]c(=O)c3c2CCCC3)ccc1F
target-under-test: PARP in C41 cells (Homo sapiens (Human), UniProt P09874)
Cell EC50 ratio: 0.19

molecule: Cc1c(C(=O)Nc2cccc(Cc3n[nH]c(=O)c4c3CCCC4)c2)cnn1-c1ccccc1 [drawing 22]
target-under-test: PARP in C41 cells (Homo sapiens (Human), UniProt P09874)
Cell EC50 ratio: 14.1

molecule: O=C(c1cc(Cc2n[nH]c(=O)c3c2CCCC3)ccc1F)N1CCN(c2ccccc2F)CC1 [drawing 39]
target-under-test: PARP in C41 cells (Homo sapiens (Human), UniProt P09874)
Cell EC50 ratio: 1.3

molecule: O=C(c1cc(Cc2n[nH]c(=O)c3c2CCCC3)ccc1F)N1CCN(c2ccccc2Cl)CC1 [drawing 37]
target-under-test: PARP in C41 cells (Homo sapiens (Human), UniProt P09874)
Cell EC50 ratio: 6

molecule: O=C(c1cccc(Cc2n[nH]c(=O)c3c2CCCC3)c1)N1CCN(c2ccccc2Cl)CC1 [drawing 36]
target-under-test: PARP in C41 cells (Homo sapiens (Human), UniProt P09874)
Cell EC50 ratio: 15

molecule: NC(=O)C1CCCN(C(=O)c2cc(Cc3n[nH]c(=O)c4c3CCCC4)ccc2F)C1 (centres unmarked) [drawing 45]
target-under-test: PARP in C41 cells (Homo sapiens (Human), UniProt P09874)
Cell EC50 ratio: 28

molecule: CC(=O)N1CCN(C(=O)c2cc(Cc3n[nH]c(=O)c4c3CCCC4)ccc2F)CC1 [drawing 29]
target-under-test: PARP in C41 cells (Homo sapiens (Human), UniProt P09874)
Cell EC50 ratio: 2.3

molecule: CN1CCCN(C(=O)c2cccc(Cc3n[nH]c(=O)c4c3CCCC4)c2)CC1 [drawing 42]
target-under-test: PARP in C41 cells (Homo sapiens (Human), UniProt P09874)
Cell EC50 ratio: 3.8

molecule: O=C(c1cccc(Cc2n[nH]c(=O)c3c2CCCC3)c1)N1CCN(c2ccc(F)cc2)CC1 [drawing 40]
target-under-test: PARP in C41 cells (Homo sapiens (Human), UniProt P09874)
Cell EC50 ratio: 2.2

molecule: COc1ccc(C(=O)CCC(=O)Nc2cc(Cc3n[nH]c(=O)c4c3CCCC4)ccc2F)cc1 [drawing 15]
target-under-test: PARP in C41 cells (Homo sapiens (Human), UniProt P09874)
Cell EC50 ratio: 2.6

molecule: CN(C)CCN(C)C(=O)c1cc(Cc2n[nH]c(=O)c3c2CCCC3)ccc1F [drawing 53]
target-under-test: PARP in C41 cells (Homo sapiens (Human), UniProt P09874)
Cell EC50 ratio: 0.7

molecule: O=C(CCCC(=O)Nc1cc(Cc2n[nH]c(=O)c3c2CCCC3)ccc1F)Nc1ccccc1 [drawing 21]
target-under-test: PARP in C41 cells (Homo sapiens (Human), UniProt P09874)
Cell EC50 ratio: 0.34

molecule: O=C(c1cccc(Cc2n[nH]c(=O)c3c2CCCC3)c1)N1CCN(c2ccccc2)CC1 [drawing 34]
target-under-test: PARP in C41 cells (Homo sapiens (Human), UniProt P09874)
Cell EC50 ratio: 3.2

molecule: CCN1CCN(C(=O)c2cccc(Cc3n[nH]c(=O)c4c3CCCC4)c2)CC1 [drawing 30]
target-under-test: PARP in C41 cells (Homo sapiens (Human), UniProt P09874)
Cell EC50 ratio: 1.8

molecule: O=C1CCC(=O)N1c1cccc(Cc2n[nH]c(=O)c3c2CCCC3)c1
target-under-test: PARP in C41 cells (Homo sapiens (Human), UniProt P09874)
Cell EC50 ratio: 1.7

molecule: O=C(CCCC(=O)Nc1cccc(Cc2n[nH]c(=O)c3c2CCCC3)c1)Nc1ccccc1 [drawing 20]
target-under-test: PARP in C41 cells (Homo sapiens (Human), UniProt P09874)
Cell EC50 ratio: 3.2
